Origin of measurements: ChEMBL document CHEMBL4808148

# target.or.test.system: Protein deacetylase HDAC6 (Homo sapiens)
# measurement.parameters: at 10 µM
# Sequence (Q9UBN7 whole entry): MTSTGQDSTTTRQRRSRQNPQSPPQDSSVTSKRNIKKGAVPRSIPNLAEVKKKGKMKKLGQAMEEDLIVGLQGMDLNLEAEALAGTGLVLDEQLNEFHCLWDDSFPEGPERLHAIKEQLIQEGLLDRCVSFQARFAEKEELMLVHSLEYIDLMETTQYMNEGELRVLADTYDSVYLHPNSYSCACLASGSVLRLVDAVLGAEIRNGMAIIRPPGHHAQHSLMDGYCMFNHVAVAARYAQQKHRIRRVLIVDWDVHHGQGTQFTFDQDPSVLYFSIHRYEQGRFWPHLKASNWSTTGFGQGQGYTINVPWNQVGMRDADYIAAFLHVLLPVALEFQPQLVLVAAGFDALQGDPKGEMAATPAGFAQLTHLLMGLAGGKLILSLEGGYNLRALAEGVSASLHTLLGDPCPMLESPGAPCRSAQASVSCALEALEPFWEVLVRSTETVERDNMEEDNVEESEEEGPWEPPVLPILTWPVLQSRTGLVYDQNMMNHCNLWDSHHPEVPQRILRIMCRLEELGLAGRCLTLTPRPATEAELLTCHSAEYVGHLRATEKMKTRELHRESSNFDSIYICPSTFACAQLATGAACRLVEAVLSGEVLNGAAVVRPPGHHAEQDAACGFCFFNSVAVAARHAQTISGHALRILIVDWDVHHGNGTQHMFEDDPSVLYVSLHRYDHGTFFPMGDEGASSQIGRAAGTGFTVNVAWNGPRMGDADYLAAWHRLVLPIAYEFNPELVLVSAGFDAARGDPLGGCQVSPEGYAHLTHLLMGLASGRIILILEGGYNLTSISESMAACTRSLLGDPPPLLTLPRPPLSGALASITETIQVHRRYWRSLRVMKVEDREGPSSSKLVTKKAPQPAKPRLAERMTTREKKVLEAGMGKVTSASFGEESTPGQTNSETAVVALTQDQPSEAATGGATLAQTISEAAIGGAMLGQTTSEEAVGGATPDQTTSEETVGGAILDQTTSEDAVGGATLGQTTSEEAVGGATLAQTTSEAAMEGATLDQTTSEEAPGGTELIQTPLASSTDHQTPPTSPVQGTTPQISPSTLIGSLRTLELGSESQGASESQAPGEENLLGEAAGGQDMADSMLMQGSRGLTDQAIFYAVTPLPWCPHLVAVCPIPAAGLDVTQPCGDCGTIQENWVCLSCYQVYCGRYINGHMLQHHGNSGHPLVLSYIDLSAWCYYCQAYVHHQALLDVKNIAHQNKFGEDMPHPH
Among all 5,600 compounds or so, about 390 (7%) showed an effect of 50% or more. The sample holds strong results, similar compounds and a random draw of the others, so the mix is not that of the screen.
measured.attribute: inhibition (%)

| compound | measured.attribute | unit.symbol | numeric.readout |
| --- | --- | --- | --- |
| Cc1ccc(C(=O)Nc2ccc(CN3CCN(C)CC3)c(C(F)(F)F)c2)cc1C#Cc1cnc2[nH]ncc2c1 | inhibition | % | 69 |
| CN1CC[C@@]2(C)c3cc(OC(=O)Nc4ccccc4)ccc3N(C)[C@@H]12 | inhibition | % | 54 |
| CCCCCCCCCCCCCCCC(=O)OCCC1CCN(CCCN2c3ccccc3Sc3ccc(S(=O)(=O)N(C)C)cc32)CC1 | inhibition | % | 9.91 |
| O=C1CCC2CCC(=O)N12 | inhibition | % | 5.05 |
| O[C@@](Cc1nc(CC2(C(F)(F)F)CC2)c[nH]1)(c1ccc(-n2cccn2)cc1)C(F)(F)F | inhibition | % | -0.94 |
| C=C1C[C@@]2(O)O[C@@]3(C[C@H]2C(C)C)[C@@H](C)CC[C@@H]13 | inhibition | % | 20.2 |
| O=C(O)CC1CC(c2ccccc2)=NO1 (centres undefined) | inhibition | % | 32.1 |
| CCN1CCN(Cc2ccc(C(=O)Nc3ccc(C)c(Oc4ccc5c(c4)CC(=O)N5)c3)cc2C(F)(F)F)CC1 | inhibition | % | 42.8 |
| CC[C@H]1[C@@H](O)[C@@H]2[C@H](CC[C@]3(C)[C@@H]([C@H](C)CCOS(=O)(=O)O)CC[C@@H]23)[C@@]2(C)CC[C@@H](O)C[C@@H]12 | inhibition | % | -1.78 |
| O=C(NCCN1CCC(n2c(=O)[nH]c3ccccc32)CC1)c1cc2cc(F)ccc2[nH]1 | inhibition | % | 22.7 |
| Cn1cc(-c2cc(Oc3cc(F)c(NC(=O)C4(C(=O)Nc5ccccc5)CC4)cc3F)ccn2)cn1 | inhibition | % | 13.7 |
| CC1(C)S[C@@H]2[C@H](NC(=O)[C@H](NC(=O)N3CCNC3=O)c3ccccc3)C(=O)N2[C@H]1C(=O)O | inhibition | % | 13.9 |
| CCCCCCCCCC(=O)OCCN1CCN(CCCN2c3ccccc3Sc3ccc(C(F)(F)F)cc32)CC1 | inhibition | % | 1.38 |
| COc1ccccc1OC(=O)CNC(=O)Cc1ccc(C(=O)c2ccc(C)cc2)n1C | inhibition | % | 27.4 |
| CC1(O)C(O)C(CO)OC1n1ccc(N)nc1=O (centres undefined) | inhibition | % | 50.8 |
| N=C1CCCN1Cc1[nH]c(=O)[nH]c(=O)c1Cl | inhibition | % | 55.5 |
| OCCN1CCN(CCCN2c3ccccc3Sc3ccc(C(F)(F)F)cc32)CC1 | inhibition | % | 86.6 |
| C[C@@]1(O)[C@H](O)[C@@H](CO)O[C@H]1n1cnc2c(NC3CCCC3)nc(Cl)nc21 | inhibition | % | -7.46 |
| CN1CCN(Cc2ccc(Nc3ncc(Cl)c(Nc4ccccc4S(=O)(=O)N(C)C)n3)cc2)CC1 | inhibition | % | 5.09 |

----------
# target.or.test.system: Protein deacetylase HDAC6 (Homo sapiens)
# measurement.parameters: at 10 µM
Out of some 5,600 compounds screened, about 390 (7%) showed an effect of 50% or more. For the sample, strong results were picked, then their nearest neighbours and some compounds at random.
# maps each entry to its inhibition
measured.attribute: inhibition (%)

| substance | measured.attribute | numeric.readout |
| --- | --- | --- |
| TOCOFERSOLAN, CHEMBL2108106 | inhibition | 6.6 |
| NYSTATIN, CHEMBL5465559 | inhibition | 30.5 |
| GADOTERIDOL, CHEMBL1200593 | inhibition | -7.04 |
| PHENYLMERCURIC ACETATE, CHEMBL1333953 | inhibition | 113 |
| ESCIN, CHEMBL4594473 | inhibition | 3.89 |
| MERBROMIN, CHEMBL3833381 | inhibition | 65.3 |
| VANADATE ION, CHEMBL1163564 | inhibition | 8.48 |
